- measurement notes: DRUGMATRIX: Nicotinic Acetylcholine radioligand binding (ligand: [125I] Epibatidine)
- Assay type: cell membranes, Membrane
- test conditions: imr-32; Not Active = under 50% inhibition at 10 µM
quantity kind: Ki

See these solved cases before continuing.
NS(=O)(=O)c1cc(C2(O)NC(=O)c3ccccc32)ccc1Cl (centres undefined) [CHLORTHALIDONE] : Not Active
O=C(O)P(=O)(O)O [FOSCARNET] : Not Active
Cn1c(=O)c2c(ncn2C)n(C)c1=O [CAFFEINE] : Not Active
CCOC(=O)c1ncn2c1CN(C)C(=O)c1cc(F)ccc1-2 [FLUMAZENIL] : Not Active
CN1CCC(=C2c3ccccc3CC(=O)c3sccc32)CC1 [KETOTIFEN] : Not Active

Looking up N[C@@H](Cn1ccc(=O)c(O)c1)C(=O)O [L-MIMOSINE] , I found its Ki recorded as Not Active

Looking up CC1=NN(c2ccccc2)C(=O)C1 [EDARAVONE] , I found its Ki recorded as Not Active

Looking up C[C@]12C=CC(=O)C=C1CC[C@H]1[C@@H]3C[C@@H](O)[C@](O)(C(=O)CO)[C@@]3(C)C[C@H](O)[C@@]12F [TRIAMCINOLONE] , I found its Ki recorded as Not Active

Looking up CS(=O)(=O)Nc1ccc([N+](=O)[O-])cc1Oc1ccccc1 [NIMESULIDE] , I found its Ki recorded as Not Active

Looking up CCN(CC)CCCC(C)Nc1c2ccc(Cl)cc2nc2ccc(OC)cc12 (centres undefined) [QUINACRINE] , I found its Ki recorded as Not Active

Looking up C[C@@H]1C/C=C/C=C/C=C/C=C/[C@H](O[C@@H]2O[C@H](C)[C@@H](O)[C@H](N)[C@@H]2O)C[C@@H]2O[C@](O)(C[C@@H](O)C[C@H]3O[C@@H]3/C=C/C(=O)O1)C[C@H](O)[C@H]2C(=O)O [NATAMYCIN] , I found its Ki recorded as Not Active

Looking up C[C@H]1O[C@H](O[C@H]2[C@H](O)[C@@H](O)[C@@H](O[C@H]3[C@H](O)[C@@H](O)C(O)O[C@@H]3CO)O[C@@H]2CO)[C@H](O)[C@@H](O)[C@@H]1N[C@H]1C=C(CO)[C@@H](O)[C@H](O)[C@H]1O (some centres undefined) [ACARBOSE] , I found its Ki recorded as Not Active

Looking up COc1cc(OC)c(C(=O)CCCN2CCCC2)c(OC)c1 [BUFLOMEDIL] , I found its Ki recorded as Not Active

Looking up C#C[C@]1(O)CC[C@H]2[C@@H]3CCC4=CC(=O)CC[C@]4(C)[C@H]3CC[C@@]21C [ETHISTERONE] , I found its Ki recorded as Not Active

---

- measurement notes: DRUGMATRIX: Glutamate, NMDA, Phencyclidine radioligand binding (ligand: [3H] TCP)
- Format: cell membranes, Rattus norvegicus, Wistar, Cerebral cortex, Membrane
- test conditions: Not Active = under 50% inhibition at 10 µM
quantity kind: Ki

See these solved cases before continuing.
NC(=O)c1cccc(N)c1 [3-AMINOBENZAMIDE] : Not Active
NCCCNCCSP(=O)(O)O [AMIFOSTINE] : Not Active
C#C[C@]1(O)CC[C@H]2[C@@H]3CCC4=CC(=O)CC[C@]4(C)[C@H]3CC[C@@]21C [ETHISTERONE] : Not Active
CC(=O)Oc1ccccc1C(=O)O [ASPIRIN] : Not Active
O=C(O)c1ccccc1O [SALICYLIC ACID] : Not Active
C[C@]12C=CC(=O)C=C1CC[C@@H]1[C@@H]2C(=O)C[C@@]2(C)[C@H]1CC[C@]2(O)C(=O)CO [PREDNISONE] : Not Active

Looking up Nc1cc(-c2ccncc2)c[nH]c1=O [INAMRINONE] , I found its Ki recorded as Not Active

Looking up COc1ccccc1N , I found its Ki recorded as Not Active

Looking up CN1CCN(C(c2ccccc2)c2ccccc2)CC1 [CYCLIZINE] , I found its Ki recorded as Not Active

Looking up CN1CCN(c2c(F)cc3c(=O)c(C(=O)O)cn(CCF)c3c2F)CC1 [FLEROXACIN] , I found its Ki recorded as Not Active

Looking up CO/N=C(\C(=O)N[C@@H]1C(=O)N2C(C(=O)O)=C(COC(C)=O)CS[C@H]12)c1csc(N)n1 [CEFOTAXIME] , I found its Ki recorded as Not Active

Looking up O=C(O)CCCCC1CCSS1 (stereo not drawn) [LIPOIC ACID, ALPHA] , I found its Ki recorded as Not Active

Looking up CC(C)(C)NCC(O)COc1cccc2c1CC(O)C(O)C2 (centres undefined) [NADOLOL] , I found its Ki recorded as Not Active

Looking up C[C@]12C=CC(=O)C=C1CC[C@H]1[C@@H]3C[C@@H](O)[C@](O)(C(=O)CO)[C@@]3(C)C[C@H](O)[C@@]12F [TRIAMCINOLONE] , I found its Ki recorded as Not Active

Looking up C[C@H]1[C@H](NC(=O)/C(=N\OC(C)(C)C(=O)O)c2csc(N)n2)C(=O)N1S(=O)(=O)O [AZTREONAM] , I found its Ki recorded as Not Active

Looking up O=c1[nH]c(=O)n(C2CCCO2)cc1F (centres undefined) [TEGAFUR] , I found its Ki recorded as Not Active
